Overview of reported pKd across a group of binders:
Biological target: T1, biotinylated mouse Sortilin monomer (mouse, UniProt Q6PHU5 74-754, limits assumed, biotinylated)
T1 construct: also called Bt-msSort
Assay: MSD-SET, Fab
pKd: −log10 of the molar value.
measureName: pKd

# binder, recordedMeasurement
measured = [
    ("S-15-6 Fab (Fab, V domains shown, Fab by papain digestion) VH: QVQLVQSGAEVKKPGASVKVSCKASGYTFTSRYMSWVRQAPGQGLEWMGIINPVGGSTSYAQKFQGRVTMTRDTSTSTVYMELSSLRSEDTAVYYCARDPSGIAAAGPASRYYYGMDVWGQGTTVTVSS VL: EIVMTQSPATLSVSPGERATLSCRASQSVSSNLAWYQQKPGQAPRLLIYGASTRATGIPARFSGSGSGTEFTLTISSLQSEDFAVYYCQQARLGPWTFGGGTKVEIK", 10.15),
    ("S-15-3 Fab (Fab, V domains shown, Fab by papain digestion) VH: QVQLVQSGAEVKKPGASVKVSCKASGYTFTSTYMSWVRQAPGQGLEWMGIINPYGGSTSYAQKFQGRVTMTRDTSTSTVYMELSSLRSEDTAVYYCARDPSGIAAAGPASRYYYGMDVWGQGTTVTVSS VL: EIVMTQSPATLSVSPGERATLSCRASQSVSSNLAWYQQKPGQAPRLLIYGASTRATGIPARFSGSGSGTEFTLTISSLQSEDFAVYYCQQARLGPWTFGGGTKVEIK", 9.96),
    ("S-22-3 Fab (Fab, V domains shown, Fab by papain digestion) VH: QVQLVQSGAEVKKPGSSVKVSCKASGGTFRSYAISWVRQAPGQGLEWMGGIIPGFGTAWYAQKFQGRVTITADESTSTAYMELSSLRSEDTAVYYCARQGRKTGYYYYYGMDVWGQGTTVTVSS VL: DIQMTQSPSTLSASVGDRVTITCRASQSISSWLAWYQQKPGKAPKLLIYKASSLESGVPSRFSGSGSGTEFTLTISSLQPDDFATYYCQQADGHITFGGGTKVEIK", 8.92),
]
